# credit: BindingDB's records for patent US20250325711

ASSAY_TARGET: UniProt:P34972
Sequence (P34972 whole entry): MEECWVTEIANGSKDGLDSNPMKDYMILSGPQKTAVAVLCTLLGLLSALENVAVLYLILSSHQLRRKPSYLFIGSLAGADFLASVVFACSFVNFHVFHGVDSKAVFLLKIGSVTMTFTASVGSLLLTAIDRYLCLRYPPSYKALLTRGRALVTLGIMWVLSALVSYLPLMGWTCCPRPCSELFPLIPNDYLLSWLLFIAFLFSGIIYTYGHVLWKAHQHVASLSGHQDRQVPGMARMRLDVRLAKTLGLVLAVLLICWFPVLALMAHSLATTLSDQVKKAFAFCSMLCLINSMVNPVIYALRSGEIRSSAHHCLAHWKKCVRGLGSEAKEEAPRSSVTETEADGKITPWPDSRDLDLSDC
Attribute: Kd
Provide the reading as a plain figure in nM.

Lookup: Kd for COc1cc(C(C)(C)CCCCCCN=[N+]=[N-])cc(OC)c1[C@H]1C=C(CNC(=O)CCCCCCNC(=O)c2ccc(=O)n(S(=O)(=O)c3cccc(C(=O)NCC4CN(CCOCCNc5ccc([N+](=O)[O-])c6nonc56)N=N4)c3)c2)[C@H]2C[C@@H]1C2(C)C (some centres undefined) ?
Found: 22.9

Lookup: Lookup CCCCCCC(C)(C)c1cc(OC)c([C@H]2C=C(CNC(=O)CCCCCCNC(=O)c3ccc(=O)n(S(=O)(=O)c4cccc(C(=O)NCC5CN(CCOCCNc6ccc([N+](=O)[O-])c7nonc67)N=N5)c4)c3)[C@H]3C[C@@H]2C3(C)C)c(OC)c1 (some centres undefined)
Found: 24.2

Lookup: Lookup COc1cc(C(C)(C)CCCCCCN=[N+]=[N-])cc(OC)c1[C@H]1C=C(CNC(=O)CCCCNC(=O)c2ccc(=O)n(S(=O)(=O)c3cccc(C(=O)NCCC4CN(CCOCCNc5ccc([N+](=O)[O-])c6nonc56)N=N4)c3)c2)[C@H]2C[C@@H]1C2(C)C (some centres undefined)
Found: 9.1

Lookup: Lookup COc1cc(C(C)(C)CCCCCCN=[N+]=[N-])cc(OC)c1[C@H]1C=C(CNC(=O)CCCCCCNC(=O)c2ccc(=O)n(S(=O)(=O)c3cccc(C(=O)NCC4CN(CCOCCOCCOCCOCCNc5ccc([N+](=O)[O-])c6nonc56)N=N4)c3)c2)[C@H]2C[C@@H]1C2(C)C (some centres undefined)
Found: 4.5
